System: Parabacteroides distasonis
Assay: growth AUC relative to DMSO control (median of replicates) (fraction); higher = more growth (less inhibition), active = hit call of the paper
Conditions: 20 µM; 24 h
Kindly return label 1 if reported growth AUC is no lower than 1; return label 0 if it is lower.

Incoming: Tell me whether growth AUC is at least 1 here: COc1ccc(Cl)c(Cl)c1Cl
Outgoing: label 1

Incoming: Reported growth AUC at or above 1? C/C=C/C=C/CCCCCCCO
Outgoing: label 0

Incoming: Is growth AUC at least 1? Consider COc1c(I)cc(C#N)cc1I
Outgoing: label 0

Incoming: I'd appreciate it if you could say whether CNC(=O)/C(=N/OC)c1ccccc1COc1cc(C)ccc1C has growth AUC at least equal to 1.
Outgoing: label 0

Incoming: Identify whether the reported growth AUC of the following compound is 1 or greater: FC(F)(F)/N=C1\SC(=Nc2ccccc2)N(c2ccccc2)\C1=N\C(F)(F)F
Outgoing: label 0

Incoming: Assess whether reported growth AUC for COC(=O)C(C)Oc1ccc(Oc2ccc(C(F)(F)F)cn2)cc1 (configuration not stated) sits at 1 or higher.
Outgoing: label 0

Incoming: Exam item: decide whether the reported growth AUC for CC(C)OC(=O)c1cc(C(=O)OC(C)C)cc([N+](=O)[O-])c1 is at least 1.
Outgoing: label 0

Incoming: Could you tell me if the measured growth AUC of O=c1cccc2n1CCn1c-2cccc1=O reaches 1 or more?
Outgoing: label 1

###

Can you tell me growth AUC for the items I'm about to list?
Test system: Escherichia coli IAI1
Experiment: growth AUC relative to DMSO control (median of replicates) (fraction); higher = more growth (less inhibition), active = hit call of the paper
Conditions: 20 µM; 24 h
Form field (numeric): enter value without unit.

Incoming: Please look up its growth AUC: CSc1nc(NC2CC2)nc(NC(C)(C)C)n1
Outgoing: 1.03

Incoming: Which growth AUC is listed for COC(=O)C(C)Oc1ccc(Oc2ccc(C(F)(F)F)cn2)cc1 (configuration not stated) ?
Outgoing: 1.02

Incoming: Consider the compound shown here: CCOC(=O)C(C)N(C(=O)c1ccccc1)c1ccc(Cl)c(Cl)c1 (configuration not stated) What is its recorded growth AUC?
Outgoing: 0.991

Incoming: // lookup growth AUC for COC(=O)c1c(Cl)c(Cl)c(C(=O)OC)c(Cl)c1Cl
Outgoing: 0.995

Incoming: growth AUC for CC(C)(NC(=O)C(Br)C(C)(C)C)c1ccccc1 (configuration not stated) ?
Outgoing: 0.983

Incoming: Name the reported growth AUC value associated with the compound CCc1cccc(C)c1N(C(=O)C(=O)O)[C@@H](C)C(=O)O
Outgoing: 0.988

Incoming: Query (compound): CC(=O)Nc1cc(NS(=O)(=O)C(F)(F)F)c(C)cc1C ; field requested: growth AUC
Outgoing: 0.976

Incoming: Which value of growth AUC has been reported for CCCCN(C)C(=O)Nc1ccc(Cl)c(Cl)c1 in the records?
Outgoing: 1

Incoming: // lookup growth AUC for CCc1ccc(C(c2ccc(CC)cc2)C(Cl)Cl)cc1
Outgoing: 1.01

Incoming: Give the measured growth AUC of COc1nc(OC)nc(C(=O)c2cccc(F)c2N(C)S(=O)(=O)C(F)F)n1 .
Outgoing: 0.986

Incoming: What measured growth AUC goes with O=C(O)CCCc1c[nH]c2ccccc12 ?
Outgoing: 0.962

Incoming: For the compound Cc1cc(CC(C)CC(C)(C)C)n(O)c(=O)c1.NCCO (configuration not stated) , what growth AUC is on record?
Outgoing: 1

Incoming: Give its growth AUC value. Item: COC(=O)c1cccc(C)c1S(=O)(=O)NC(=O)Nc1nc(OCC(F)(F)F)nc(N(C)C)n1
Outgoing: 0.997

Incoming: Would you mind telling me what growth AUC value was observed for CCCN(CCOc1c(Cl)cc(Cl)cc1Cl)C(=O)NC=O ?
Outgoing: 0.993

Incoming: May I ask what growth AUC has been recorded for CCc1cc(C(=O)O)cc(CC)c1C1C(=O)N2CCOCCN2C1=O ?
Outgoing: 1.02

Incoming: Which growth AUC value is on record for COCCOc1ccccc1S(=O)(=O)NC(=O)Nc1nc(OC)nc(OC)n1 ?
Outgoing: 0.97

Incoming: Which growth AUC value belongs to COC1CCC2(CC1)NC(=O)C(O)(c1cc(C)ccc1C)C2=O (configuration not stated) ?
Outgoing: 1.02

Incoming: Would you mind telling me what growth AUC value was observed for CCNc1nc(NC(C)(C)C)[nH]c(=O)n1 ?
Outgoing: 0.987

Incoming: Given the entry CCCCCCC(C)OC(=O)COc1nc(F)c(Cl)c(N)c1Cl (configuration not stated) , report its measured growth AUC.
Outgoing: 1.01

Incoming: Look at this compound and give its reported growth AUC. Br[C@@H]1CC[C@@H](Br)[C@@H](Br)CC[C@@H](Br)[C@@H](Br)CC[C@H]1Br
Outgoing: 0.979

Incoming: Look up growth AUC: CCNc1nc(NCC)nc(OC)n1
Outgoing: 0.975

Incoming: Which growth AUC value is on record for CCCCC(CC)CN1C(=O)C2C(C1=O)[C@H]1C=C[C@@H]2C1 (mixture of isomers) ?
Outgoing: 1.03

###

System: Akkermansia muciniphila
Experiment: growth AUC relative to DMSO control (median of replicates) (fraction); higher = more growth (less inhibition), active = hit call of the paper
Details: 20 µM; 24 h
assayEndpoint: growth AUC
API note: the answer field is a bare number with no unit suffix.

Incoming: Any idea what its growth AUC is? The compound is COc1ccc(NC(=O)N(C)C)cc1Cl
Outgoing: 0.982

Incoming: Which growth AUC is listed for CCc1cccc(C)c1N(C(=O)C(=O)O)[C@@H](C)C(=O)O ?
Outgoing: 1.17

Incoming: Which growth AUC value belongs to CCc1nc2ncnn2c(N)c1CCCC(=O)O.Cl ?
Outgoing: 1.12

Incoming: Would you mind telling me what growth AUC value was observed for NC(=O)c1nn(-c2c(Cl)cc(C(F)(F)F)cc2Cl)c(N)c1S(=O)C(F)(F)F (stereo unspecified) ?
Outgoing: 0.886

Incoming: Fill blank: measured growth AUC of the compound c1cc2ccc3ccc4ccc5cccc6c(c1)c2c3c4c56 is ____.
Outgoing: 0.936

Incoming: What growth AUC value was documented for this compound, CC(C)C(O)(c1ccc(OC(F)(F)F)cc1)c1cncnc1 (stereo unspecified) ?
Outgoing: 0.853

Incoming: Which measured growth AUC value corresponds to CCC(C)c1cc([N+](=O)[O-])cc([N+](=O)[O-])c1OC(=O)OC(C)C (stereo unspecified) ?
Outgoing: 1.05

Incoming: Look up growth AUC for this compound: COC(=O)CSc1cc(N=c2sc(=O)n3n2CCCC3)c(F)cc1Cl
Outgoing: 1.11

Incoming: I am curious: what growth AUC value has been reported for C=C1C[C@]23C[C@@]1(O)CC[C@H]2[C@@]12C=C[C@H](O)[C@@](C)(C(=O)O1)[C@H]2[C@@H]3C(=O)O ?
Outgoing: 1.24

Incoming: Given the entry CCCCCCCCSCCO , report its measured growth AUC.
Outgoing: 1.06

Incoming: Name the reported growth AUC value associated with the compound C#CC(C)N(C)C(=O)Nc1ccc(Cl)cc1 (stereo unspecified)
Outgoing: 0.974

Incoming: Quick one: growth AUC of CCc1cccc(C)c1N(C(=O)C(=O)O)C(C)COC (stereo unspecified) ?
Outgoing: 0.949

Incoming: Using the record for CC(=O)Nc1cc(NS(=O)(=O)C(F)(F)F)c(C)cc1C , report its growth AUC.
Outgoing: 0.856

Incoming: For COC(=O)[C@@H](C)Oc1ccc(Oc2ncc(C(F)(F)F)cc2Cl)cc1 , what is its reported growth AUC?
Outgoing: 1.04

Incoming: Name the reported growth AUC value associated with the compound CN(C)C(N)=O
Outgoing: 1.05

Incoming: Form field: reported growth AUC of O=C(O)c1cccc2nnsc12
Outgoing: 0.935

Incoming: Fill blank: measured growth AUC of the compound CN(C)C(=O)Nc1ccc(Oc2ccc(Cl)cc2)cc1 is ____.
Outgoing: 0.943

Incoming: May I ask what growth AUC has been recorded for CCOCN(C(=O)C(=O)O)c1c(C)cccc1CC ?
Outgoing: 0.978

Incoming: Record request: growth AUC value, item O=C1NC(=O)c2ccccc21
Outgoing: 1.09

Incoming: Give the measured growth AUC of CCc1cccc(C)c1N(C(=O)CS(=O)(=O)[O-])C(C)COC.[Na+] (stereo unspecified) .
Outgoing: 1.08

Incoming: Quick one: growth AUC of O=c1oc(-c2ccccc2)nc2ccccc12 ?
Outgoing: 0.96

Incoming: May I ask what growth AUC has been recorded for Cc1cc(C)c(C2=C(O)C3(CCCC3)OC2=O)c(C)c1 ?
Outgoing: 1.01

Incoming: Item CN(C)C(=O)c1cccnc1S(N)(=O)=O has what recorded growth AUC?
Outgoing: 1.05

Incoming: Item CC(C)NS(=O)(=O)NC(=O)c1cc(-n2c(=O)cc(C(F)(F)F)[nH]c2=O)c(F)cc1Cl has what recorded growth AUC?
Outgoing: 1.11

Incoming: For the compound shown here, CCOC(=O)C1CC(=O)C(=C(O)C2CC2)C(=O)C1 (stereo unspecified) , give the reported growth AUC.
Outgoing: 1.01

Incoming: Return reported growth AUC; argument: CCCCCCCC(=O)Oc1c(Br)cc(C#N)cc1Br
Outgoing: 1.06

Incoming: Report growth AUC for N#Cc1cc(Cl)c(O)c(Cl)c1 please.
Outgoing: 1.12

Incoming: Any idea what its growth AUC is? The compound is CC(C)C1C2CCC1c1c(NC(=O)c3cn(C)nc3C(F)F)cccc12 (stereo unspecified)
Outgoing: 0.967

Incoming: Quick one: growth AUC for Cl.NCCO/C=C/[C@H](N)C(=O)O ?
Outgoing: 1.02

Incoming: What value of growth AUC has been recorded for this entry: COC(=O)c1ccc(C(=O)OC)cc1
Outgoing: 0.99

Incoming: Reported growth AUC, compound CCCCC(CC)COC(=O)COc1cc(Cl)c(Cl)cc1Cl (stereo unspecified) : ____
Outgoing: 0.936

Incoming: I'd like to know its growth AUC. The compound in question is Cc1c(Br)c2ccc(F)cc2n1S(=O)(=O)c1ncn(S(=O)(=O)N(C)C)n1
Outgoing: 0.998

Incoming: Recorded growth AUC of CCOC(=O)c1nc(C(Cl)(Cl)Cl)n(-c2ccc(Cl)cc2Cl)n1 , please.
Outgoing: 0.908

Incoming: What does the record list as growth AUC for CCCCOCCOCCOCc1cc2c(cc1CCC)OCO2 ?
Outgoing: 0.968

Incoming: Entry CCCCOC(=O)COc1ccc(Cl)cc1Cl has what growth AUC?
Outgoing: 1.06

Incoming: Give the measured growth AUC of COC(=O)c1c(Cl)ccc(Cl)c1OC .
Outgoing: 1.02

Incoming: Tell me the measured growth AUC of COC(=O)C(C)Oc1ccc(Cl)cc1C (stereo unspecified) , please.
Outgoing: 0.866

Incoming: Find the recorded growth AUC belonging to Nc1cc(Cl)nc(C(=O)O)c1Cl and report it.
Outgoing: 1.11

Incoming: Which growth AUC reading was recorded for the compound Cc1nc(C(F)(F)F)c(C(=O)Nc2c(Br)cc(OC(F)(F)F)cc2Br)s1 ?
Outgoing: 1.05

Incoming: Request the reported growth AUC associated with CCNc1nc(NC(C)(C)C)[nH]c(=O)n1
Outgoing: 1

Incoming: # query: growth AUC of entry O=[N+]([O-])c1ccc2c(c1)Cc1ccccc1-2
Outgoing: 0.896

Incoming: Which growth AUC value is on record for CC1COc2ccccc2N1C(=O)C(Cl)Cl (stereo unspecified) ?
Outgoing: 0.721

Incoming: I'd like to know its growth AUC. The compound in question is CNC(=O)/C(=N/OC)c1ccccc1CO/N=C(C)/C(=N/OC)C(/C)=N/OC
Outgoing: 0.957

Incoming: Requested read-out: growth AUC. Entry: C#CCOc1cc(-n2nc(C(C)(C)C)oc2=O)c(Cl)cc1Cl
Outgoing: 1.14

Incoming: For the compound COc1cc(OC)nc(NC(=O)NS(=O)(=O)c2c(-c3nnn(C)n3)cnn2C)n1 , what growth AUC is on record?
Outgoing: 1.13

Incoming: Fill in: growth AUC of Cc1[nH]n(C)c(=O)c1C(=O)c1ccc(C(F)(F)F)cc1S(C)(=O)=O is ___
Outgoing: 0.91
